- assayed.target: EPHB2 (UniProt P29323)
- Sequence (P29323 whole entry, looked up): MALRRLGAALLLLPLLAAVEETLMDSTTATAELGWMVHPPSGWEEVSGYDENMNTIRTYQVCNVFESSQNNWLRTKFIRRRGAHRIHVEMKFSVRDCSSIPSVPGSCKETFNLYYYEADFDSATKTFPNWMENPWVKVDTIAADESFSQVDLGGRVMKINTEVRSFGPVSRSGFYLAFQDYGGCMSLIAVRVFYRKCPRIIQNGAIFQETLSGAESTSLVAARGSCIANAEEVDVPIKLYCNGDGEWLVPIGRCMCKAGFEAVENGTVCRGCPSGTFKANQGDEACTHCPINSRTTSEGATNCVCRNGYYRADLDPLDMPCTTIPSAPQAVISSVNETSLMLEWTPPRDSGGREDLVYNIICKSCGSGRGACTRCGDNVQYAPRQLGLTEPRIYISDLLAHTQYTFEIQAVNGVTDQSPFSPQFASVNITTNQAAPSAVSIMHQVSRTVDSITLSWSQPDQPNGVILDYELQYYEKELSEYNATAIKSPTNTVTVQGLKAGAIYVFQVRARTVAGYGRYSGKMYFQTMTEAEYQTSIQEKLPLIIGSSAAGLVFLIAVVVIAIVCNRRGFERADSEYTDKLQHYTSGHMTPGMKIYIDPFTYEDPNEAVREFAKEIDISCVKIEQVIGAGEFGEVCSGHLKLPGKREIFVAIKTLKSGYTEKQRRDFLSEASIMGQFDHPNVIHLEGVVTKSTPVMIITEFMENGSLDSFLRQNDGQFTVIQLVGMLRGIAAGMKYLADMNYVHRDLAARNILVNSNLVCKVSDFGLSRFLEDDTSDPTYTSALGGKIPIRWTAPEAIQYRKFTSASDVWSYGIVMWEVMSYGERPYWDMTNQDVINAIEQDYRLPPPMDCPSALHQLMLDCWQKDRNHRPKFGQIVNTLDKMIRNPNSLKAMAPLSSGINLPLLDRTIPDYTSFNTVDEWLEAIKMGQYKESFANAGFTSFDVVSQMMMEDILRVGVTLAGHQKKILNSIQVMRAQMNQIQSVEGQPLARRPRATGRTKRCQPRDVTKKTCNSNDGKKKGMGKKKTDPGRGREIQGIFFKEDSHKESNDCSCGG
- test.protocol: phosphorylation enrichment, bacterial display (enrichment ratio); higher = better substrate or ligand; peptides without Tyr show the background;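 further: 11-residue human phosphosite peptides and single-mutation variants displayed on the E. coli surface, counted by deep sequencing, each peptide's frequency after selection divided by its frequency in the unselected input library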;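 further: frequency after pTyr selection over input frequency; kinase dosed for 20-30% of maximal phosphorylation in three min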
Output Fulfilled for phosphorylation enrichment not less than 0.5; output Not fulfilled otherwise.

Field: example entries. Status: answers known.
VPLLEYYRDIF [CDAN1_Y712] = Fulfilled
FLLRVYSIFSK [SGCE_Y38_T36R] = Not fulfilled
CRIELYRIVES [IGFBP1_Y181_V183I] = Fulfilled
LSRDVYEEDSY [RET_Y900] = Fulfilled

Is reported phosphorylation enrichment greater than or equal to 0.5 here: RLLRGHDQYAY [HLA-B_Y137]
Fulfilled

Is reported phosphorylation enrichment greater than or equal to 0.5 here: PSALGYSPSLH [LLGL2_Y40_R45H]
Not fulfilled

Is reported phosphorylation enrichment greater than or equal to 0.5 here: QSSALYEDCYL [ASS1_Y83_R86C]
Fulfilled

Is reported phosphorylation enrichment greater than or equal to 0.5 here: HTLMKYTDGDQ [PUS7L_Y94_I92M]
Fulfilled

Is reported phosphorylation enrichment greater than or equal to 0.5 here: KVFRVYQGQQP [MUTYH_Y494]
Not fulfilled

Is reported phosphorylation enrichment greater than or equal to 0.5 here: SVVVSYEPPEV [TP53_Y220_P219S]
Fulfilled

Is reported phosphorylation enrichment greater than or equal to 0.5 here: KNDSIYVVKGN [KIT_Y823_N822I]
Fulfilled
